# system name: T1, Human ANGPTL4(26-406)-FLAG-His6-Avi (human, UniProt Q9BY76 24-406, biotin on the C-terminal Avi tag in the biotinylated preparations (immobilised form in SET, ELISA and Octet))
# T1 sequence: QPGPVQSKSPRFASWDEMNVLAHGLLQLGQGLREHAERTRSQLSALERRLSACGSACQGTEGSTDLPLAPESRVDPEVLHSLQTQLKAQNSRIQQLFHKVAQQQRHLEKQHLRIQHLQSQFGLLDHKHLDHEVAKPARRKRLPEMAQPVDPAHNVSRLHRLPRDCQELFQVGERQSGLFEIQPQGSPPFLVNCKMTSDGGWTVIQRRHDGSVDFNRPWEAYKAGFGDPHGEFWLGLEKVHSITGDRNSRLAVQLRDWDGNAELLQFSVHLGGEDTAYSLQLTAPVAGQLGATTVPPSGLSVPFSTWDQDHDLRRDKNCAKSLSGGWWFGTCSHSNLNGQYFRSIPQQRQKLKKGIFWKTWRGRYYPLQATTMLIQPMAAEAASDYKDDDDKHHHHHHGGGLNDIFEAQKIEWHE
# assay details: cell-based or functional assay
Provide the reported Reversal of human ANGPTL4 inhibition of human LPL EC50 of each item.
Express your answer in nM, writing the number without its unit.

Exercise: Report Reversal of human ANGPTL4 inhibition of human LPL EC50 for MOR022768 (antibody, human IgG1, kappa, V domains shown, human IgG1) VH: EVQLLESGGGLVQPGGSLRLSCAASGFTFSSYYLHWVRQAPGKGLEWVSYISGSGSSTYYADSVKGRFTISRDNSKNTLYLQMNSLRAEDTAVYYCARERSYAHDHWGQGTLVTVSS VL: DIQMTQSPSSLSASVGDRVTITCRASQDIYIDLNWYQQKPGKAPKLLIYAASKLQSGVPSRFSGSGSGTDFTLTISSLQPEDFATYYCQQGYFLPQTFGQGTKVEIKR
Key: 2

Exercise: // Input: MOR022762 (antibody, human IgG1, lambda, V domains shown, human IgG1) VH: QVQLVQSGAEVKKPGSSVKVSCKASGGTFSSYAISWVRQAPGQGLEWMGGIIPLFGFANYAQKFQGRVTITADESTSTAYMELSSLRSEDTAVYYCARESYDPYAFDVWGQGTLVTVSS VL: SYELTQPLSVSVALGQTARITCSGDNLGKYSASWYQQKPGQAPVLVIHQDNNRPSGIPERFSGSNSGNTATLTISRAQAGDEADYYCASRAHSMHVVFGGGTKLTVLG . Output its Reversal of human ANGPTL4 inhibition of human LPL EC50 only.
Key: 4

Exercise: Output Reversal of human ANGPTL4 inhibition of human LPL EC50 of MOR022772 (antibody, human IgG1, kappa, V domains shown, human IgG1) VH: EVQLLESGGGLVQPGGSLRLSCAASGFTFSSYWMHWVRQAPGKGLEWVSGISYDASSTNYADSVKGRFTISRDNSKNTLYLQMNSLRAEDTAVYYCARDSYIYDLHWGFDNWGQGTLVTVSS VL: DIQMTQSPSSLSASVGDRVTITCRASQDISSYLNWYQQKPGKAPKLLIYAASRLQSGVPSRFSGSGSGTDFTLTISSLQPEDFATYYCQQSYTHPYTFGQGTKVEIKR
Key: 5
